I'd be grateful if you could share measured CC90 at 72 h for these entries.
- test.summary: Cytotoxicity against human THP1 cells after 72 hrs by MTT assay
- Assay type: cell-based
- test.conditions: THP-1 cells

Task: Item under review: Clc1ccc2c(c1)C[C@H]1C[C@@H](c3ccccc3)N2O1 (relative stereo) . Reported CC90 at 72 h?
Result: > 300 µM

Task: Please answer likewise for Clc1ccc([C@@H]2C[C@@H]3Cc4ccccc4N2O3)cc1 (relative stereo)
Result: > 300 µM

Task: // same read-out, input: Clc1cccc([C@@H]2C[C@@H]3Cc4ccccc4N2O3)c1 (relative stereo)
Result: > 300 µM

Task: // query: O[C@@H]1Cc2ccccc2N[C@H](c2c(F)cccc2Cl)C1 (relative stereo)
Result: > 300 µM

Task: Request: Brc1ccc2c(c1)C[C@H]1C[C@@H](c3ccccc3)N2O1 (relative stereo)
Result: > 300 µM

Task: Please give the result for O[C@@H]1Cc2cc(Cl)ccc2N[C@H](c2ccccc2)C1 (relative stereo) too.
Result: > 300 µM

Task: What would you report for Clc1ccc2c(c1)C[C@H]1C[C@@H](c3c(Cl)cccc3Cl)N2O1 (relative stereo) ?
Result: > 295 µM

Task: // next record Fc1ccccc1[C@@H]1C[C@@H]2Cc3ccccc3N1O2 (relative stereo)
Result: > 300 µM

Task: For Cc1ccc2c(c1)C[C@H]1C[C@@H](c3ccccc3Cl)N2O1 (relative stereo) then?
Result: 109 µM

Task: For Clc1ccc2c(c1)C[C@H]1C[C@@H](c3ccccc3Cl)N2O1 (relative stereo) then?
Result: > 300 µM

Task: For C[C@@H]1[C@H](O)[C@@H](C)/C=C/C=C/C=C/C=C/C=C/C=C/C=C/[C@H](O[C@@H]2O[C@H](C)[C@@H](O)[C@H](N)[C@@H]2O)C[C@@H]2O[C@](O)(C[C@@H](O)C[C@@H](O)[C@H](O)CC[C@@H](O)C[C@@H](O)CC(=O)O[C@H]1C)C[C@H](O)[C@H]2C(=O)O then?
Result: 34.9 µM

Task: Also check O[C@@H]1Cc2cc(Cl)ccc2N[C@H](c2ccccc2F)C1 (relative stereo)
Result: 273 µM

Task: Next compound: O[C@@H]1Cc2cc(F)ccc2N[C@H](c2ccccc2)C1 (relative stereo)
Result: > 300 µM
